# growth listing for each entry below
- Test system: RPMI-8226 leukemia
- experimentalDetails: NCI-60 one-dose screen, 48 h (100 = growth as untreated, 0 = no growth, -100 = all killed)
- protocolConditions: 10 µM unless noted
This is part of a sample that, as a whole, favours compounds with a hit. Of some 83,000 tested, about 20% had one in any assay.
endpointLabel: growth (%)

> print(dat)
                                   molecule  number
1  Cc1nc2sc(C(=O)Nc3cccc4ccccc34)c(N)c2cc1C(C)O (centres undefined)      18
2  N#CC1C(c2ccc(Cl)cc2)=Nc2c(c(-c3ccccc3)nn2-c2ccccc2)C12C(=O)Nc1ccc(Cl)cc12 (centres undefined)    24.7
3     COc1ccc(Sc2[nH]c(C(C)=O)c3ccccc23)cc1    41.4
4  c1ccc2c3c([nH]c2c1)C(c1ccc(C2NCCc4c2[nH]c2ccccc42)cc1)NCC3 (centres undefined)   -40.3
5  COc1ccc2[nH]c(=O)c(/C=C/C(=O)/C=C/c3ccc(O)c(OC)c3)cc2c1   -18.5
6  Cc1cc2ccccc2c[n+]1CC(=O)c1ccc(-c2ccccc2)cc1    19.6
7  C=CCn1c(SCC(=O)Nc2ccc(C(=O)/C=C/c3ccc(Cl)cc3)cc2)nnc1-c1cc(OC)c(OC)c(OC)c1    28.7
8  COc1cc(/C=C/C(=O)c2ccc(NC(=O)CSc3nnc(-c4cc(OC)c(OC)c(OC)c4)n3-c3ccccc3)cc2)cc(OC)c1OC   -13.1
9                      CN(C)CSc1nc2ccccc2s1    98.7
